test: Molar enthalpy of transition or fusion; settings: Crystal; DSC
Below, each of the compounds is paired with its reported Molar enthalpy of transition or fusion value.
Entry rule: numbers only, all in kcal/mol.

Some entries whose results are on file:
compound | unit.symbol | Molar enthalpy of transition or fusion
COC(=O)c1ccc(I)cc1 [methyl p-iodobenzoate] | kcal/mol | 7.1
COC(=O)c1ccc(Cl)cc1 [methyl 4-chlorobenzoate] | kcal/mol | 5.09
COC(=O)c1ccc(F)cc1 [methyl p-fluorobenzoate] | kcal/mol | 3.68

Please turn your attention to the following entry.
Problem: Consider the compound COC(=O)c1ccc(Br)cc1 [methyl 4-bromobenzoate] and give its measured Molar enthalpy of transition or fusion.
Solution: 6.17
